- Test system: PPARg:RXRa 270nM:90nM, anti-RXR (NR concentration 270 nM, RXRa partner concentration 90 nM)
- experimentalDetails: PBM binding z-score (relative to random genomic background probes); higher = stronger binding; sequences stand for … in GC…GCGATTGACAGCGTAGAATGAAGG
Output T for PBM binding z-score not less than 2; output F otherwise.

seqString: CCTGCTAGGTCATGCTCAGCTAATCTACAGTATG
classification: T

# bool: PBM binding z-score of CCTAGCAGGCCGATCTGGGTCACTCAAGGCTTGA >= 2
F

Say whether CCTGACGGGTCACTGACAGGTTATAGCATTTGGA shows PBM binding z-score of 2 or more.
T

====

- Tested on: PXR:RXRa (NR concentration 270 nM, RXRa partner concentration 90 nM)
- experimentalDetails: PBM binding z-score (relative to random genomic background probes); higher = stronger binding; sequences stand for … in GC…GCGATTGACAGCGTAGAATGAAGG
List of PBM binding z-score values.
Could you keep your reply to the number by itself?

Consider the following illustrative entries.
seqString: GTACCAAGGTGAATAGGTCGTTGACGAGTAGGCG
measuredMetric: PBM binding z-score
observedValue: 0.88
--
seqString: GCTAGCAGGCCCTTTGGGTCACTCAATGACGGGC
measuredMetric: PBM binding z-score
observedValue: -0.203
--
seqString: ACTTGTTGGTCAGCTGAGGTCACACACAATTCGG
measuredMetric: PBM binding z-score
observedValue: 5.63
--
seqString: CCTACTGGGCCAGCAGGTCATTGATATCAACGTT
measuredMetric: PBM binding z-score
observedValue: 1.46
--
seqString: ATCTCCAGGTAAGACTCAGTTCAGTGAAGAACGC
measuredMetric: PBM binding z-score
observedValue: 1.38

May I ask what PBM binding z-score has been recorded for GCTGCTAGGTCAAGTTGGTCAGCTAACGGGTACG ?
1.68

Which PBM binding z-score reading was recorded for the sequence AGTCAAAGTTCGCTAGGTAACGTAAGATTCAGCT ?
0.563

Give its PBM binding z-score value. Item: ATCTCTAGGTAAAGATAGTTCCGTGAATGCAAAT
-0.0332

What PBM binding z-score value was documented for this sequence, CCTACTGGCCCATTCAGAGGTCATTGATCATATG ?
4.67

May I ask what PBM binding z-score has been recorded for CAAACTAGGTCAAGAGGTGAAAGTCCGCTTCCCG ?
2.72

Entry AATACAGGGTCACTAGGGCAGAGTAGGTACGAAT has what PBM binding z-score?
3.51

Give the measured PBM binding z-score of TCTCGGAGGACACGATAGGTCAGAGCTCGACATC .
0.843

====

- Test system: PPARg:RXRa 270nM:90nM, anti-RXR (NR concentration 270 nM, RXRa partner concentration 90 nM)
- experimentalDetails: PBM binding z-score (relative to random genomic background probes); higher = stronger binding; sequences stand for … in GC…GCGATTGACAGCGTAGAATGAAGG
Consider the following sequences and their measured PBM binding z-score readings.

Consider the reported PBM binding z-score for these sequences:
seqString: GCTAGTTGGTCAGTAAAAGGTCAAACACCGGTCG
PBM binding z-score: 4.45

seqString: TCGAGTAGGTTAGGGCCATTCAGAATGGCGTCGA
PBM binding z-score: 0.722

seqString: GCAGACAGGTCAAACGCAGGTAACTCAGGGTGGC
PBM binding z-score: 3.59

Consider the sequence CTACCAAGGTGTACAAGGTCGTTGATTACTATTC and give its measured PBM binding z-score.
0.583

PBM binding z-score lookup needed for ACAGACAGGTGAGTGAAGGTTACTCAGCTGGACG , thanks.
0.505

Consider the sequence shown here: CCAGGCAGGTGAGAAGGTAACTCAGCCTCGATTA What is its recorded PBM binding z-score?
0.813

Quick one: PBM binding z-score for TCTTCTAGATCAAAGGTTAAGAAAGCCGAAGCCT ?
8.19

# input sequence: CATACAGGGTGAGCTAGGCCAGAGTAGGGACGGC ; wanted: its PBM binding z-score
-0.129

// lookup PBM binding z-score for AGTCAAAGTTCAGGACGAGGTAACGGAAAGCACG
4.88

Data request, read-out PBM binding z-score, for CCTACTGGGCCATCAGTTCATTGATATCAACGTT
2.19

Look up PBM binding z-score: ATCGAAAGTTCGAGGTGAGTATAGAGAAAGGGAA
0.797

For the sequence shown here, TCGAGTAGGCTAGTCGGGGCATTCAGCCAACATA , give the reported PBM binding z-score.
0.0773

====

- Test system: RXRa DBDmut IVT, anti-RXR (DBD mutation: RXRa K156A/R161A, NR concentration 90 nM)
- experimentalDetails: PBM binding z-score (relative to random genomic background probes); higher = stronger binding; sequences stand for … in GC…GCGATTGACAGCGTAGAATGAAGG
measuredMetric: PBM binding z-score

Examples with their reported PBM binding z-score follow.
seqString: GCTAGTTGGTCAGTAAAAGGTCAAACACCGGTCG
PBM binding z-score: 0.64
--
seqString: AGAACGAGGGCAATGAGATGATAGCACGGGTGGC
PBM binding z-score: 1.59
--
seqString: CGAACTAGGTCCAGGACAGTGAATCTCCGCACGC
PBM binding z-score: 0.703

Next sequence, PBM binding z-score to be filled in.
# query: PBM binding z-score of entry CCGAGTAGGTTAGGGGGCATTCAGGCAACGGTGA
1.54

====

- Tested on: LXRb:RXRa (NR concentration 270 nM, RXRa partner concentration 90 nM)
- experimentalDetails: PBM binding z-score (relative to random genomic background probes); higher = stronger binding; sequences stand for … in GC…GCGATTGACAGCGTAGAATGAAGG
Assign Satisfied whenever PBM binding z-score does not fall below 2; assign Not satisfied whenever it does.

seqString: CCTTACGGGTCACTGAAAGGTTATAGCATTTGGA
testedOn: LXRb:RXRa (NR concentration 270 nM, RXRa partner concentration 90 nM)
classification: Satisfied
--
seqString: AGAATGAGGTTATACGTAGATCAGGGCAGAAAGT
testedOn: LXRb:RXRa (NR concentration 270 nM, RXRa partner concentration 90 nM)
classification: Not satisfied
--
seqString: ATACCAAGGTGATCGTCAGGTCGTTGATACTAAC
testedOn: LXRb:RXRa (NR concentration 270 nM, RXRa partner concentration 90 nM)
classification: Not satisfied
--
seqString: ATCGAAAGGTCGACGAGGTGAGTTTACACCGTTT
testedOn: LXRb:RXRa (NR concentration 270 nM, RXRa partner concentration 90 nM)
classification: Satisfied
--
seqString: CGTCAAAGTTCAAGGGAACGTAACAGAAAGCAGC
testedOn: LXRb:RXRa (NR concentration 270 nM, RXRa partner concentration 90 nM)
classification: Satisfied

Please indicate if the recorded PBM binding z-score for AGAATGAGGTTATTAAGATGAGGGAATTGCGGTC meets or exceeds 2.
Not satisfied

Is reported PBM binding z-score greater than or equal to 2 here: CCTACTGGGCCTTTCAGAGGTCATTGATCATATG
Satisfied

State whether the measured PBM binding z-score reaches 2, counting equality as reaching it, for CCTGCTAGGTAATGGTCAGCTAATCTACAGTATG
Not satisfied

Say whether AGCATGAGGTTATTAAGATCAGGGAATTGCGGTC shows PBM binding z-score of 2 or more.
Not satisfied

====

- System: RARb homodimer (NR concentration 270 nM)
- experimentalDetails: PBM binding z-score (relative to random genomic background probes); higher = stronger binding; sequences stand for … in GC…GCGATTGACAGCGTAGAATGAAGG
Param threshold (2) applies to PBM binding z-score; output True when value >= threshold, False when value < threshold.

Decide: is the reported value of PBM binding z-score for GCTTGCAGGCCATTTGGGTCACTCAATGACGGGC equal to or greater than 2?
False

Could you tell me if the measured PBM binding z-score of TCTCGGAGGACACGAAAGTCAGAGCTTTCCAGAG reaches 2 or more?
False

Kindly determine if PBM binding z-score recorded for ATCTCTAGGAAAAGTTCAGTGAAAGATCGATAGA is above or exactly 2.
True

Given the entry CCGGCTGGGGCAGAAAGGTTACCATACCATCCGG , answer whether its PBM binding z-score meets or surpasses 2.
True

Confirm if PBM binding z-score reported for the sequence TGAATGAGCTTAAAGATCAGGGAACGTGGCGTCG is 2 or above.
False

Could you verify whether the entry CCGAGTAAGTTATGGGGCATTCAGGCAACGGTGA shows PBM binding z-score of no less than 2?
False

Given TCTCGGGGGACACGAAGGTCAGAGCTTTCCAGAG , state whether its PBM binding z-score is at least 2.
True

Would you say ACAGACAGGTGAGGGAAGGTAACTCAGCTGGACG shows PBM binding z-score at minimum 2?
False

Please tell me: is the sequence ACTCGGAGGACAAAGTTCAGAGCTACGCCAGTGA at or over 2 in terms of PBM binding z-score?
True

Could you verify whether the entry GCTAGCAGGTCATTTGGGTCACTCAATGACGGGC shows PBM binding z-score of no less than 2?
True

Is PBM binding z-score for TCGAGTAGGTTAGTCGGGGCATTCCGCCAACATA at or above 2?
False

Quick check, PBM binding z-score >= 2? CGAACTAGGTCAGAACAGGATAGTGAAGGATGAT
False

Answer whether PBM binding z-score of TCGAGTAGGTTAGGGGCAATCAGAATGGCGTCGA is greater than or equal to 2.
False

Could you please find out whether CCTCGTAGGACAGAAGGTCAGAGCTGTCCGCTTT has PBM binding z-score that meets 2 or exceeds it?
True

Record ATCACTAGGTAACAAGTTCAGTGAAAGAGAGGAC ; criterion: PBM binding z-score no lower than 2. Met?
False

Determine whether this sequence has PBM binding z-score no lower than 2: TCTCGGAGGATACGAAAGGTCAGAGCTCGACATC
True

API: above_or_equal(metric=PBM binding z-score, cutoff=2) for item TCTTGCAGATCAACAGGAGGTTAAGAAAGATCGA
False

Does the reported PBM binding z-score for AGAAGGAGGGCAATGAGTTGATAGCACGGGTGGC fall at or above the 2 mark?
False

Quick check: does CATCCAGGGTCAGCTAGGCCAGAGTAGGGACGGC have PBM binding z-score greater than or equal to 2?
True

Check if PBM binding z-score >= 2 (inclusive). Item: TTACCAAGCTGAGCTGAGGTCGTTGATCCAACTC
False
